Values compiled from ChEMBL document CHEMBL1146614.

- ASSAY PROCEDURE: Ability to block collagen (3 ug/mL)-induced platelet aggregation
- Assay type: functional
READOUT: IC50 (µM)
Field format: number, assumed µM, no unit text.

*Q* What does the record list as IC50 for NCCCNC(=O)[C@H](CCN)NC(=O)[C@H](Cc1ccc(Cl)cc1)NC(=O)Nc1ccc2c(CN3CCCC3)cn(Cc3c(Cl)cccc3Cl)c2c1 ?
*A* 11

*Q* What does the record list as IC50 for NCC[C@H](NC(=O)[C@H](Cc1ccc(F)c(F)c1)NC(=O)Nc1ccc2c(CN3CCCC3)cn(Cc3c(Cl)cccc3Cl)c2c1)C(=O)NCc1ccco1 ?
*A* 7.9

*Q* What does the record list as IC50 for NCC[C@H](NC(=O)[C@H](Cc1ccc(F)c(F)c1)NC(=O)Nc1ccc2c(CN3CCCC3)cn(Cc3c(Cl)cccc3Cl)c2c1)C(=O)NCc1cccs1 ?
*A* 7
